# Test system: SNB-19 CNS
# Method notes: NCI tumour cell line growth inhibition, 48 h
So I've got a bunch of compounds here, and I need their GI50 values.

The recorded GI50 for Cn1c2ccccc2c2c3c(c4c5ccccc5n(CCCCCC#N)c4c21)C(=O)N(O)C3=O is 0.545 µM

The recorded GI50 for O=[N+]([O-])c1ccc2[nH]cc(-c3c4ccccc4cc4[nH]c5ccc([N+](=O)[O-])cc5c34)c2c1 is 2.88 µM

The recorded GI50 for CN(C)CCn1cc(-c2ccc3c(Nc4ccc(CC(=O)Nc5cccc(F)c5)cc4)ncnc3c2)cn1 is 1.34 µM

The recorded GI50 for O=C(NC(=S)NS(=O)(=O)c1ccc(N2N=C3c4ccccc4CC3C2c2cccs2)cc1)c1ccccc1 (stereo not drawn) is 46.3 µM

The recorded GI50 for O=C1c2cccc3cccc(c23)C(=O)N1CCCCOc1ccc(-c2nc3ccc(N4CCOCC4)cc3[nH]2)cc1 is 7.91 µM

The recorded GI50 for COc1cc(/C=C/C(=O)c2ccc(Nc3nc(Nc4ccc(F)cc4)nc(Nc4ccc(F)cc4)n3)cc2)cc(OC)c1OC is 76.6 µM

The recorded GI50 for COC(=O)c1ccc2c(c1)nc(-c1ccc(Cl)cc1)n2-c1cc(C(C)(C)C)[nH]n1 is 4.31 µM

The recorded GI50 for CCOc1ccc2c(c1)/C(=C\C=C\C1CC(C)C3CC(OCC)CCC3N1CC)CC(C)N2CC (stereo not drawn) is 0.512 µM

====

So I've got a bunch of molecules here, and I need their GI50 values.
# Tested on: UACC-62 melanoma
# Method notes: NCI tumour cell line growth inhibition, 48 h

The recorded GI50 for CNCCNc1nc2ccccc2c2c(=O)c3cccc(OC)c3sc12 is 1570 nM

The recorded GI50 for COc1ccc(C2CC(c3cc(OC)c(OC)c(OC)c3)=NN2)cc1 (stereo not given) is 7630 nM

The recorded GI50 for NS(=O)(=O)c1ccc(-n2nc(-c3ccc(Cl)cc3)cc2C2=CC(=O)C=CC2=O)cc1 is 14200 nM

The recorded GI50 for CCOc1ccc2c(c1)/C(=C\C=C\C1CC(C)C3CC(OCC)CCC3N1CC)CC(C)N2CC (stereo not given) is 1260 nM

The recorded GI50 for COC(=O)c1oc2c(C(=O)/C=C/c3ccc(OC)cc3)c(OCCCN3CCCCC3)ccc2c1C is 1540 nM

====

# Tested on: MDA-MB-435
# Method notes: NCI tumour cell line growth inhibition, 48 h
So I've got a bunch of molecules here, and I need their TGI values.

The recorded TGI for CCOC(=O)C1(C(=O)OCC)C[C@H]2CON=C2[C@@H]1c1ccc(C(F)(F)F)cc1 is > 100 µM

The recorded TGI for COc1cc2c(cc1-c1c(C)noc1C)ncc1nc(C3CCCCC3)n(C3CCC(OC(F)F)CC3)c12 (stereo not given) is > 100 µM

The recorded TGI for CCCCCCCCSC1=CC(=O)C(OC)=C(OC)C1=O is 7.57 µM

The recorded TGI for O=C1/C(=C/c2ccc(O)cc2)CCC1CNc1ccc(Cl)cc1 (stereo not given) is 17.3 µM

The recorded TGI for COc1cccc(-n2nnc3c(N)nc(N)nc32)c1 is > 100 µM

====

# Test system: HL-60(TB) leukemia
# Method notes: NCI tumour cell line growth inhibition, 48 h
Param threshold (20 µM) applies to TGI; output Satisfied when value >= threshold, Not satisfied when value < threshold.

Textbook exercise: given the entry O=Cc1cc(O)c(O)c(O)c1-c1c(C=O)cc(O)c(O)c1O , state whether its TGI is greater than or equal to 20 µM. Satisfied

Textbook exercise: given the entry CC1(C)OC1CC/C(=C/CBr)CBr (stereo unspecified) , state whether its TGI is greater than or equal to 20 µM. Satisfied

Textbook exercise: given the entry CCOC(=O)c1c(OCC)[nH]c(=O)c(C(c2ccc(F)cc2)c2c(O)c(C(=O)OCC)c(OCC)[nH]c2=O)c1O , state whether its TGI is greater than or equal to 20 µM. Satisfied

Textbook exercise: given the entry CSC(=S)N/N=C(\C)c1ccccn1 , state whether its TGI is greater than or equal to 20 µM. Not satisfied

Textbook exercise: given the entry CC(=O)Nc1ccc(C(=O)N[C@@H]2C(=O)N3[C@@H]2SC(C)(C)[C@@H]3C(=O)O)cn1 , state whether its TGI is greater than or equal to 20 µM. Satisfied

Textbook exercise: given the entry COCOc1cc(OC)ccc1C=O , state whether its TGI is greater than or equal to 20 µM. Satisfied

Textbook exercise: given the entry Cn1c2ccccc2c2c3c(c4c5ccccc5n(CCCCCC#N)c4c21)C(=O)N(O)C3=O , state whether its TGI is greater than or equal to 20 µM. Not satisfied

Textbook exercise: given the entry CCOC(=O)C(=Cc1ccccc1Br)C(=O)OCC , state whether its TGI is greater than or equal to 20 µM. Not satisfied

Textbook exercise: given the entry Cc1cc(Cl)ccc1NC(=O)C1C(=O)N(c2ccc(Cl)cc2C)C(=O)/C1=N\N (stereo unspecified) , state whether its TGI is greater than or equal to 20 µM. Satisfied

Textbook exercise: given the entry O=C(/C=N/O)c1c(-c2ccccc2)[nH]c(-c2ccccc2)c1-c1ccccc1 , state whether its TGI is greater than or equal to 20 µM. Satisfied

Textbook exercise: given the entry CCC1=C(C)C2=NC1=CC1=NC(=C(CC)/C1=C/O)C=C1N=C3C(=C1C)C(=O)C(C(=O)OC)C3=C1NC(=C2)C(C)C1CCC(=O)OC (stereo unspecified) , state whether its TGI is greater than or equal to 20 µM. Satisfied

====

# System: SNB-78 CNS
# Method notes: NCI tumour cell line growth inhibition, 48 h
Measured endpoint: TGI (µM)
Quick reminder: number only, in µM, skip the unit.

Sample CC(C)(C)c1cc(C(O)(C(F)(F)F)C(F)(F)F)c2c(c1)C(C(F)(F)F)(C(F)(F)F)OC(c1ccccc1)(C(C)(C)C)N2 (stereo not given) , system: SNB-78 CNS. Its TGI is 24.1

Sample C/C=C/C1(NS(=O)(=O)c2ccc(C)cc2)CCC(C(C)(C)C)CC1 (stereo not given) , system: SNB-78 CNS. Its TGI is 64.1

====

So I've got a bunch of compounds here, and I need their TGI values.
# Test system: A549 NSCLC
# Method notes: NCI tumour cell line growth inhibition, 48 h

Sample CCP(=O)(CC)C(Cl)(Cl)C(=O)NC , system: A549 NSCLC. Its TGI is > 100 µM

Sample C=C1C(=O)O[C@H]2C1C[C@@H](O)[C@@]1(C)OC1CC[C@@]1(C)O[C@H]21 (some centres not stated) , system: A549 NSCLC. Its TGI is > 100 µM

Sample C[Si](C)(C)/C(Br)=C\CCN1C(=O)CCC1O (configuration not stated) , system: A549 NSCLC. Its TGI is > 100 µM

Sample CCOC(=O)c1c(NC(=S)NCc2ccccc2)sc2c1CCN(C)C2 , system: A549 NSCLC. Its TGI is > 100 µM

Sample CC(=O)OC1CC2(O)C(CCC3(C)C(c4ccc(=O)oc4)CCC32O)C2(C)CCC(O)C=C12 (configuration not stated) , system: A549 NSCLC. Its TGI is 0.0272 µM

Sample CC(CN(CP(=O)([O-])[O-])CP(=O)([O-])[O-])N(CP(=O)([O-])[O-])CP(=O)([O-])[O-].N[C@@H]1CCCC[C@@H]1N.[Pt+2] (configuration not stated) , system: A549 NSCLC. Its TGI is > 100 µM

Sample NS(=O)(=O)c1ccc(-n2nc(-c3ccc(Cl)cc3)cc2C2=CC(=O)C=CC2=O)cc1 , system: A549 NSCLC. Its TGI is > 100 µM

Sample COC(=O)/C(C#N)=C1\N=NNN1CCCc1ccccc1 , system: A549 NSCLC. Its TGI is > 100 µM

Sample CCOC(=O)c1c(OCC)[nH]c(=O)c(C(c2ccc(F)cc2)c2c(O)c(C(=O)OCC)c(OCC)[nH]c2=O)c1O , system: A549 NSCLC. Its TGI is 29.3 µM

Sample CCC(=O)O[C@@H]1C2C(OC(C)=O)C34COC(C)([C@@H]3C3C(C[C@]3(C)OC(C)=O)[C@@H](OC(=O)c3ccccc3)C4=O)[C@H](OC(C)=O)[C@@]2(OC(C)=O)C[C@@H]1C (some centres not stated) , system: A549 NSCLC. Its TGI is > 100 µM

Sample CCCCCCCCCCCCC(Br)C(=O)SCCNC(=O)CCNC(=O)[C@@H](O)C(C)(C)COP(=O)(O)OP(=O)(O)OCC1OC(n2cnc3c(N)ncnc32)C(O)C1OP(=O)(O)O (some centres not stated) , system: A549 NSCLC. Its TGI is > 56.5 µM

Sample COCOc1cc(OC)ccc1C=O , system: A549 NSCLC. Its TGI is > 100 µM

Sample O=C1c2cc3c(cc2-c2c1c1ccc([N+](=O)[O-])cc1c(=O)n2CCCCl)OCO3 , system: A549 NSCLC. Its TGI is > 100 µM

Sample CC(C)(C)c1cc(C2COC(=O)COCCOCC(=O)OCCOCCO2)cc(C(C)(C)C)c1O (configuration not stated) , system: A549 NSCLC. Its TGI is > 100 µM

Sample C=C1C(=O)O[C@H]2[C@H]1CC/C(COC(=O)CCC(=O)OC/C1=C/CC[C@@]3(C)O[C@H]3[C@H]3OC(=O)C(=C)[C@@H]3CC1)=C\CC[C@@]1(C)O[C@@H]21 , system: A549 NSCLC. Its TGI is 30 µM

Sample CCOC(=O)Cc1csc(/N=C\c2c(O)c3ccccc3oc2=O)n1 , system: A549 NSCLC. Its TGI is > 100 µM

Sample CC1=C(C(=O)Nc2ccc(F)c(Cl)c2)C(c2cccc(Cl)c2)NC(=O)N1 (configuration not stated) , system: A549 NSCLC. Its TGI is 85.1 µM
